Hello, the source for this data is PubChem BioAssay, in case you need it.

# TEST DESCRIPTION: MRP1 drug-resistance reversers in H69AR cells – cell-based, doxorubicin co-treatment, pilot screen (AID 601)
# CONDITION NOTES: H69AR cells + 2 uM doxorubicin, CellTiter-Glo, 72 h; measured here: viability with 2 uM doxorubicin; at 10 µM; stronger effect = lower value
ENDPOINT LABEL: viability (%)
Report the value in % with no unit label.

Report measured viability; entry is COc1ccc(C2CC(c3cccc(C)c3)n3ncnc3N2)cc1 (stereo not drawn)
97.2

Report measured viability; entry is `CCOC(=O)CCc1c(C)nc2cc(-c3ccc(F)cc3)[nH]n2c1=O`
92.2

Report measured viability; entry is `CSc1ccccc1NC(=O)c1cnc2n(c1=O)CCS2`
91.3

Report measured viability; entry is CCOc1ccccc1C1C(C(=O)Nc2ccc(OC)cc2)=C(C)Nc2nc(CCCO)nn21 (stereo not drawn)
82.6

Report measured viability; entry is CNC(=O)C1C2C=CC3(O2)C1C(=O)N(C1CC1)C3C(=O)NCc1ccc(OC)cc1 (stereo not drawn)
92

Report measured viability; entry is CCOC(=O)C(CC)Sc1ncnc2nc[nH]c12 (stereo not drawn)
88.2

Report measured viability; entry is `Cc1cc(C)cc(N(CC(=O)Nc2cccc(C)n2)S(=O)(=O)c2c(C)noc2C)c1`
73.8

Report measured viability; entry is C=C(C)c1cccc(C(C)(C)NC(=O)NCC2CCCO2)c1 (stereo not drawn)
86.5

* * *

Provide the recorded RAM network inhibition for the entries that follow.
# TEST DESCRIPTION: RAM signaling pathway blockade in yeast – S. cerevisiae, Pdr1DBD-CYC8 efflux-inhibited sensitized strain, primary screen (AID 1298);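 further: 0% = DMSO untreated cells without growth and 100% = 10 µM 1-NA-PP1 full growth; higher means more yeast growth rescued from 5-FOA killing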
# CONDITION NOTES: S. cerevisiae cbk1-as DSE1-URA3 strain, 5-FOA growth OD615, 2 d; at 50 µM; stronger effect = higher value
Calls of active or inactive are those of the source.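 Rule for the calls: active = RAM network inhibition above 8.4% in each of two replicates, 3 SD over the compound average; inconclusive = above 8.4% inhibition in only one replicate; inactive = 8.4% inhibition or less in each replicate.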

Report measured RAM network inhibition; entry is `COC(=O)CSc1nc(C)cc(Oc2ccccc2)n1`
4.9% (inactive)

Report measured RAM network inhibition; entry is `COc1ccc(NC(=O)CSc2nnc(Cc3cccn3C)n2-c2ccc(F)cc2)cc1OC`
2.95% (inactive)

Report measured RAM network inhibition; entry is CC(O)Cc1nsc(NC(=O)c2cccs2)n1 (stereo not drawn)
0.26% (inactive)

* * *

# MEASURED ON: Receptor tyrosine-protein kinase erbB-2 (Homo sapiens) (UniProt P04626)
# Sequence (P04626 whole entry, looked up): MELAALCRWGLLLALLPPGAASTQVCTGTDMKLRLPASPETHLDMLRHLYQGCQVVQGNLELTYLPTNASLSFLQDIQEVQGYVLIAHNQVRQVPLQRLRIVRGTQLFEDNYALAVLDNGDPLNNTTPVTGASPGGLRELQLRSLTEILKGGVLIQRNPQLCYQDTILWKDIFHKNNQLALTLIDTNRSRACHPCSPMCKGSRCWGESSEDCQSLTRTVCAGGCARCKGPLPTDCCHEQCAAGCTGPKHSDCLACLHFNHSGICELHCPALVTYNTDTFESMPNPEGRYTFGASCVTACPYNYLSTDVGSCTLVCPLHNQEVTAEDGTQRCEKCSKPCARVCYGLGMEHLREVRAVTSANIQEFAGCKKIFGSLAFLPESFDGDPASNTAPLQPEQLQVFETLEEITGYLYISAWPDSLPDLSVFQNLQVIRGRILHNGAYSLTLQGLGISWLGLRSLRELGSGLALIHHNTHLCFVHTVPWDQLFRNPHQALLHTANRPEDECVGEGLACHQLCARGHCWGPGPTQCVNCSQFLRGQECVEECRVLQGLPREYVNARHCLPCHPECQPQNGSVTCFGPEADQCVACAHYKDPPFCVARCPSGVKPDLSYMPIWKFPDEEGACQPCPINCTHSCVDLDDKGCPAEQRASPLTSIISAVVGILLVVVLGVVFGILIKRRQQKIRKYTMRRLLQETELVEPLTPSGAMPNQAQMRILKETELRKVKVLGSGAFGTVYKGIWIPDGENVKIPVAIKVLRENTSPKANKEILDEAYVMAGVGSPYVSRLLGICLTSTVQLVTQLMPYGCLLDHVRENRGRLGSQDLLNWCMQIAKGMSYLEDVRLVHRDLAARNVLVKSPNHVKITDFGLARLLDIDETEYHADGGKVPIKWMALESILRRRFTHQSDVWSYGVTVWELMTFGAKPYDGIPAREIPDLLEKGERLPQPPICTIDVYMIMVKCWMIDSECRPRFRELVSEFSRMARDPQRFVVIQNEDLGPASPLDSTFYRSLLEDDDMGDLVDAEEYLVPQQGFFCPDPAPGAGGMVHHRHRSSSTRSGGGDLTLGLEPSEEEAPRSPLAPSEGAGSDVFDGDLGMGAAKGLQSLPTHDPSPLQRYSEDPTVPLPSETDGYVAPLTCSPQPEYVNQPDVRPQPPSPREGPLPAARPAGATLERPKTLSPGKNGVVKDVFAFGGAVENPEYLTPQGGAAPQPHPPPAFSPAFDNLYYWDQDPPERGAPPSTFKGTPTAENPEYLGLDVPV
# TEST DESCRIPTION: Her2 expression decrease, cell viability multiplex – SKBR3 breast tumor cells, AlphaScreen, ATP viability, primary screen (AID 461);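 further: lower value means less Her2 protein in the cells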
# CONDITION NOTES: 18-24 h, at 10 µM, stronger effect = lower value
Criterion: Her2 level strictly less than 90%. Met: t. Not met: f.

Answer whether the molecule `O=C(NCCc1c[nH]c2ccccc12)c1cnc2n(c1=O)CCS2` has Her2 level strictly less than 90%
t

Answer whether the molecule COc1cccc(C2CC(c3c(Cl)cccc3Cl)n3nc(N)nc3N2)c1 (stereo not drawn) has Her2 level strictly less than 90%
f

Answer whether the molecule `CCCC(=O)Nc1cc(C)c2c(=O)oc3ccccc3c2n1` has Her2 level strictly less than 90%
f

Answer whether the molecule `CCOc1ccc(N(CC(=O)NC2CCCCC2)S(=O)(=O)c2c(C)noc2C)cc1` has Her2 level strictly less than 90%
t

Answer whether the molecule COC(=O)NCC(c1cccnc1)N1CCOCC1 (stereo not drawn) has Her2 level strictly less than 90%
f

Answer whether the molecule `Cc1ccccc1Cn1cc(/C=N/n2cnnc2)c2ccccc21` has Her2 level strictly less than 90%
f

Answer whether the molecule `Cc1n[nH]c(C)c1N1C(=O)c2cccc3cc(Br)cc(c23)C1=O` has Her2 level strictly less than 90%
t

Answer whether the molecule COc1ccc(CCNC(=O)C2(C)CCC(=O)N2Cc2ccc3c(c2)OCO3)cc1OC (stereo not drawn) has Her2 level strictly less than 90%
f

Answer whether the molecule CC1NC2(C(=O)N(Cc3ccccc3)c3ccccc32)C2C(=O)N(c3ccccc3)C(=O)C12 (stereo not drawn) has Her2 level strictly less than 90%
f

Answer whether the molecule COc1cc(C(O)c2nc3ccccc3n2C)cc(OC)c1OC (stereo not drawn) has Her2 level strictly less than 90%
f

Answer whether the molecule COc1ccc(C(NC(=O)c2ccco2)c2ccc(OC)c(OC)c2)cc1 (stereo not drawn) has Her2 level strictly less than 90%
t

Answer whether the molecule `CN(Cc1ccccc1)S(=O)(=O)c1ccc(S(=O)(=O)N2CCN(CCC#N)CC2)cc1` has Her2 level strictly less than 90%
f

Answer whether the molecule `CN1CCN(C(=O)C2CCN(S(=O)(=O)c3ccc4c(c3)oc(=O)n4C)CC2)CC1` has Her2 level strictly less than 90%
f

Answer whether the molecule CCC1CCCCN1CCNS(=O)(=O)c1ccc2c(c1)oc(=O)n2C (stereo not drawn) has Her2 level strictly less than 90%
t

Answer whether the molecule `Cc1cccc(OCC(=O)N2CCN(C(=O)Cc3ccccc3)CC2)c1` has Her2 level strictly less than 90%
f

Answer whether the molecule Cc1nc2ccc(S(=O)(=O)NC(C(=O)Nc3nccs3)C(C)C)cc2s1 (stereo not drawn) has Her2 level strictly less than 90%
f

Answer whether the molecule O=C1c2ccccc2S(=O)(=O)N1CC(O)Cn1c2ccccc2c2ccccc21 (stereo not drawn) has Her2 level strictly less than 90%
f

Answer whether the molecule `COc1cccc(-c2nnc(NC(=O)c3ccccc3Br)o2)c1` has Her2 level strictly less than 90%
t

Answer whether the molecule `COc1ccc(-c2nc(CSCC(=O)NCc3ccc4c(c3)OCO4)c(C)o2)cc1OC` has Her2 level strictly less than 90%
f

Answer whether the molecule CC(=O)NC(CCS(C)(=O)=O)C(=O)Nc1cccc2ccccc12 (stereo not drawn) has Her2 level strictly less than 90%
f
